Listing of recorded self-cleavage by entry.
B1: Osa-1-4 twister ribozyme (parent)
chain: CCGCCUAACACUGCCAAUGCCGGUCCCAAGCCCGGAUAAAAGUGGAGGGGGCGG

Variants of: B1
procedure.details: self-cleavage, relative activity (ratio to wild type); higher = more cleavage; co-transcriptional
Just the number, please, no unit after it.

mutation.string	measured.property	val
A41U A8G	self-cleavage	0.41
U18A U24G	self-cleavage	0.02
C52A C9U	self-cleavage	0.82
A38G G54U	self-cleavage	0.94
A39C U37A	self-cleavage	0.92
C14A U37G	self-cleavage	0.15
G44A U24C	self-cleavage	0.08
G53A U18A	self-cleavage	0.8

The value of self-cleavage measured for the variant C20A G30A turned out to be 0.04

The value of self-cleavage measured for the variant C31G G22U turned out to be 0.05
